Data provenance is ChEMBL document CHEMBL3046710.

The following compounds are shown together with reported LC50 values.
- Test system: Tetranychus cinnabarinus
- Test method notes: Acaricidal activity against adult Tetranychus cinnabarinus (carmine spider mite) assessed as mortality after 72 hr by immersion method
- Type: functional

{"Compound": "Cc1cc(C)c(C2=C(C(=O)c3ccc(F)cc3)C3(CCCC3)OC2=O)c(C)c1", "Readout unit": "µg/mL", "Censor symbol": "=", "LC50": 101}
{"Compound": "CO/N=C(/C(=O)C1=C(c2c(C)cc(C)cc2C)C(=O)OC12CCCC2)c1ccccc1", "Readout unit": "µg/mL", "Censor symbol": "=", "LC50": 26}
{"Compound": "CCOC1=C(c2c(C)cc(C)cc2C)C(=O)OC12CCCC2", "Readout unit": "µg/mL", "Censor symbol": ">", "LC50": 600}
{"Compound": "Cc1cc(C)c(C2=C(OC(=O)CC(C)(C)C)C3(CCCC3)OC2=O)c(C)c1 [SPIROMESIFEN]", "Readout unit": "µg/mL", "Censor symbol": "=", "LC50": 6.26}
{"Compound": "CCC(C)(C)C(=O)C1=C(c2c(C)cc(C)cc2C)C(=O)OC12CCCC2", "Readout unit": "µg/mL", "Censor symbol": "=", "LC50": 6.26}
{"Compound": "C/C=C/C(=O)C1=C(c2c(C)cc(C)cc2C)C(=O)OC12CCCC2", "Readout unit": "µg/mL", "Censor symbol": "=", "LC50": 6.26}
{"Compound": "Cc1cc(C)c(C2=C(C(=O)C3C(C=C(Cl)Cl)C3(C)C)C3(CCCC3)OC2=O)c(C)c1 (configuration not stated)", "Readout unit": "µg/mL", "Censor symbol": ">", "LC50": 600}
{"Compound": "Cc1cc(C)c(C2=C(C(=O)c3ccccc3Cl)C3(CCCC3)OC2=O)c(C)c1", "Readout unit": "µg/mL", "Censor symbol": ">", "LC50": 600}
{"Compound": "COC1=C(c2c(C)cc(C)cc2C)C(=O)OC12CCCC2", "Readout unit": "µg/mL", "Censor symbol": ">", "LC50": 600}
{"Compound": "CCCCCC(=O)C1=C(c2c(C)cc(C)cc2C)C(=O)OC12CCCC2", "Readout unit": "µg/mL", "Censor symbol": "=", "LC50": 6.26}
{"Compound": "CCC(=O)C1=C(c2c(C)cc(C)cc2C)C(=O)OC12CCCC2", "Readout unit": "µg/mL", "Censor symbol": "=", "LC50": 6.26}
{"Compound": "CCc1c(C)cc(OC2=C(c3c(C)cc(C)cc3C)C(=O)OC23CCCC3)cc1C", "Readout unit": "µg/mL", "Censor symbol": ">", "LC50": 600}
